Test system: LXRb:RXRa (NR concentration 270 nM, RXRa partner concentration 90 nM)
assayOverview: PBM binding z-score (relative to random genomic background probes); higher = stronger binding; sequences stand for … in GC…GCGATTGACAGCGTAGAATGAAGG
Classify by PBM binding z-score. Ranges: zone 1 = under 0.6, zone 2 = from 0.6 up to 3, zone 3 = 3 and over

Completed entries (count: 3):
- seqText: "TCCTGTAGATCAAGCAGGTTAAGAAAGCCTGAGT"
  discreteLabel: "zone 1"
- seqText: "TATCCTAGGTCATGCGGGCCAGTATAGTGTCGGC"
  discreteLabel: "zone 2"
- seqText: "CCTAGTTGGTCAAGGTCATACACGCTATAGGTAC"
  discreteLabel: "zone 3"

*Q* Category of ATCTCTAGGTAACAAGTTCGGTGAAAGAGAGGAC , please.
*A* zone 1

*Q* Category of AGTCAAAGTTCAGGACGAGGAAACGTAAAGCACG , please.
*A* zone 2

*Q* Category of TCTAGCCGGCCAGAGGGTCACTCAAGAGGTACGG , please.
*A* zone 2

*Q* Category of CCTACTGGGCCATTCACAGGTCATTGATCATATG , please.
*A* zone 2

*Q* Category of GCTGGTAGATCAAGGTTAAGAAAGACTAAGCTAA , please.
*A* zone 1

*Q* Category of GGAACGAGGGCAAAGTTGGTAGCATCTGTCGACG , please.
*A* zone 1

*Q* Category of TCATATAGGTAAAAGGTGCAAGTCGGTGTGGTAA , please.
*A* zone 2
